Data provenance is patent US12258328B2.

# study-system: EGFR del19/C797S (Homo sapiens, UniProt P00533, C797S/DEL746-750)
# Sequence (P00533 with tags, fused parts or gaps DEL746-750/C797S): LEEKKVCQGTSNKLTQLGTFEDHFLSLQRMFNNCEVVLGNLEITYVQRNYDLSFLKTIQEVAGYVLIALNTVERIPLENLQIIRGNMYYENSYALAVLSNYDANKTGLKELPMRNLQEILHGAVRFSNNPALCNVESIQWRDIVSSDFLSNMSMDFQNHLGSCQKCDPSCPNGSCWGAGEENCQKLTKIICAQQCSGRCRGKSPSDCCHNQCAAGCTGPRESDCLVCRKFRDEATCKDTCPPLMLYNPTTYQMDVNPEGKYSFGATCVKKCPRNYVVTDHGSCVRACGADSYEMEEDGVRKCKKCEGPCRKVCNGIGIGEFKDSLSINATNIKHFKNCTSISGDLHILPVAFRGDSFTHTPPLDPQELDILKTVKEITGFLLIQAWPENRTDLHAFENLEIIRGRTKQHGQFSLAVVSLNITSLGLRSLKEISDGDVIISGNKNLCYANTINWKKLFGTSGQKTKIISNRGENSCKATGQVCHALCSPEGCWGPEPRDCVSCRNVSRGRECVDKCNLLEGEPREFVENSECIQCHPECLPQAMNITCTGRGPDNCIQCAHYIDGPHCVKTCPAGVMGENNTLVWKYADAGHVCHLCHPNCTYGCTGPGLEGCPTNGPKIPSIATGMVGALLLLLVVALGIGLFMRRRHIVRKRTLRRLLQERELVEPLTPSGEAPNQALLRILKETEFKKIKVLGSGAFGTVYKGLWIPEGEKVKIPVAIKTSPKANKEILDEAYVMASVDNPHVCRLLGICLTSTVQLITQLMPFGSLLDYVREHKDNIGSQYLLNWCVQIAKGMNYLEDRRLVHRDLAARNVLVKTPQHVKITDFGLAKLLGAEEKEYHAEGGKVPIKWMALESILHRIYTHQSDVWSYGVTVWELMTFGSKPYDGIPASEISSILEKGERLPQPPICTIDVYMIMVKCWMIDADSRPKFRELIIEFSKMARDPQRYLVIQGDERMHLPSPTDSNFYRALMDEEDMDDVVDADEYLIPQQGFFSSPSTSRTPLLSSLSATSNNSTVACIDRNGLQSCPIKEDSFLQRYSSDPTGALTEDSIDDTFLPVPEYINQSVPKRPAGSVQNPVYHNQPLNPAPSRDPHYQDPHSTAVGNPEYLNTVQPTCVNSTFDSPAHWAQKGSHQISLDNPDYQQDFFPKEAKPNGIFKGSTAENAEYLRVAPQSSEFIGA
# measurement-protocol: Biochemical EGFR kinase assay (Lance Ultra TR-FRET), double mutant del19/C797S
# condition-parameters: IC50 del19/C797S, 100 μM ATP
property-name: IC50 (nM)

[[record]]
molecule = "C[C@]1(O)CC[C@@H](Nc2cc(Nc3ccnc(-c4cnn(S(=O)(=O)C5CC5)c4)n3)ncc2-c2ccc(C(F)(F)F)c(F)n2)CC1"
recorded_value = 41.5

[[record]]
molecule = "O=S(=O)(C1CC1)n1cc(-c2nccc(Nc3cc(NC4CCC(CO)CC4)c(-c4ccc(C(O)C(F)(F)F)cn4)cn3)n2)cn1 (stereo not drawn)"
recorded_value = 7

[[record]]
molecule = "CC(C)(F)c1ccc(-c2cnc(Nc3ccnc(-c4cnn(S(=O)(=O)C5CC5)c4)n3)cc2N[C@H]2CC[C@@](C)(O)CC2)nc1"
recorded_value = 4.9

[[record]]
molecule = "CC(F)(F)c1ccc(-c2cnc(Nc3ccnc(-c4cnn(S(=O)(=O)C5CC5)c4)n3)cc2N[C@H]2CC[C@@H](CO)CC2)nc1"
recorded_value = 12.9

[[record]]
molecule = "O=S(=O)(C1CC1)n1cc(-c2nccc(Nc3cc(N[C@H]4CC[C@@H](CO)CC4)c(-c4cc(OCCN5CCOCC5)ccn4)cn3)n2)cn1"
recorded_value = 2.7

[[record]]
molecule = "CC(O)(c1ccc(-c2cnc(Nc3ccnc(-c4cnn(S(=O)(=O)C5CC5)c4)n3)cc2NC2CCC(CO)CC2)nc1)C(F)(F)F (stereo not drawn)"
recorded_value = 6.4


====

# study-system: EGFR wildtype (Homo sapiens)
# Sequence (P00533 25-1210): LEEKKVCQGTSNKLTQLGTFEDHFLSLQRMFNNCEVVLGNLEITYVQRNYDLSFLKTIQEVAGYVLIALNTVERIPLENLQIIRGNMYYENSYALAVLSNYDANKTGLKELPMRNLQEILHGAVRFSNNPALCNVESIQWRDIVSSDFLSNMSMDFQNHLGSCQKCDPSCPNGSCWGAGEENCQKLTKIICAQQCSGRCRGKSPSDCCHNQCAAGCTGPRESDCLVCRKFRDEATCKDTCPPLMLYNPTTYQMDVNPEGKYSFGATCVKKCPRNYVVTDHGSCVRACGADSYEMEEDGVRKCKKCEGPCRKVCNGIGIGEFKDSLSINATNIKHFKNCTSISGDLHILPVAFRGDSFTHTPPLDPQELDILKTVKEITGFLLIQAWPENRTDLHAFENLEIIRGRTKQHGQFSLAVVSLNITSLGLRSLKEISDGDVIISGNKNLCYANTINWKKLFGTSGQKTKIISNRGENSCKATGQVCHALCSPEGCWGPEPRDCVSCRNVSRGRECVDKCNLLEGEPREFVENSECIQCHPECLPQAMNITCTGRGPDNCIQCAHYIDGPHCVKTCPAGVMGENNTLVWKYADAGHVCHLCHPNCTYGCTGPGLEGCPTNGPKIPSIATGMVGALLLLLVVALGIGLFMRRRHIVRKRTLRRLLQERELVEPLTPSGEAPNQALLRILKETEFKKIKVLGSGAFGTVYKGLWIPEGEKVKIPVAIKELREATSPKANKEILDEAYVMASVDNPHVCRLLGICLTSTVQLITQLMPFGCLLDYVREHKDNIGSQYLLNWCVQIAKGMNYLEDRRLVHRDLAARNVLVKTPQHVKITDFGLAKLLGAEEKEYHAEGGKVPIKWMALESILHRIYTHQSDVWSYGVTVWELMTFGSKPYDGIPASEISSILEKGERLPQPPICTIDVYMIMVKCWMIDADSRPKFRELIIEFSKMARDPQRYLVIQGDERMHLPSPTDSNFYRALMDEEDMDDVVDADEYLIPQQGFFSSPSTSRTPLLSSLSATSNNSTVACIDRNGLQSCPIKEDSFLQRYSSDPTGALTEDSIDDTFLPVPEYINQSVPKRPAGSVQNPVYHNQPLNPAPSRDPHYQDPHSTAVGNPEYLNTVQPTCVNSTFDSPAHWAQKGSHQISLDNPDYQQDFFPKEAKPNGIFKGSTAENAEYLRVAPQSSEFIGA
# measurement-protocol: Biochemical EGFR kinase assay (Lance Ultra TR-FRET), wildtype
# condition-parameters: IC50 WT (nM) 100 μM ATP, 100 μM ATP
# Protocol: Biochemical EGFR kinase assays were conducted using Lance Ultra time-resolved fluorescence resonance energy transfer (TR-FRET) technology from Perkin-Elmer. […] Each kinase reactions were incubated at room temperature for 1 hour and then stopped by the addition of 4 μL of stop solution (10 mM EDTA). […] After 60 minutes incubation at room temperature the LANCE signal was measured on an EnVision Multilabel Reader (Perkin-Elmer). […]
Entries and their IC50 values follow.
property-name: IC50

[[record]]
cpd_smiles = "O=S(=O)(C1CC1)n1cc(-c2nccc(Nc3cc(N[C@H]4CC[C@@H](NCCF)CC4)c(-c4ccccn4)cn3)n2)cn1"
recorded_value = "3080 nM"

[[record]]
cpd_smiles = "COC1CN(c2ccc(-c3cnc(Nc4ccnc(-c5cnn(S(=O)(=O)C6CC6)c5)n4)cc3N[C@H]3CC[C@@H](CO)CC3)nc2)C1"
recorded_value = "> 10000 nM"

[[record]]
cpd_smiles = "C[C@]1(O)CC[C@@H](Nc2cc(Nc3ccnc(-c4cnn(S(=O)(=O)C5CC5)c4)n3)ncc2-c2ccc(N3CCOCC3)cn2)CC1"
recorded_value = "1430 nM"

[[record]]
cpd_smiles = "CC(C)(O)[C@H]1CC[C@@H](Nc2cc(Nc3ccnc(-c4cnn(S(=O)(=O)C5CC5)c4)n3)ncc2-c2ccc(CN3CCC(O)CC3)cn2)CC1"
recorded_value = "152 nM"

[[record]]
cpd_smiles = "CC(C)(O)[C@H]1CC[C@@H](Nc2cc(Nc3ccnc(-c4cnn(S(=O)(=O)C5CC5)c4)n3)ncc2-c2cnc(N3CCC(F)(F)CC3)cn2)CC1"
recorded_value = "> 10000 nM"

[[record]]
cpd_smiles = "O=S(=O)(C1CC1)n1cc(-c2nccc(Nc3cc(N[C@H]4CC[C@@H](CCO)CC4)c(-c4cc(C(F)F)ccn4)cn3)n2)cn1"
recorded_value = "> 10000 nM"


====

# study-system: EGFR L858R/T790M/C797S (Homo sapiens, UniProt P00533, C797S/L858R/T790M)
# Sequence (P00533 25-1210 T790M/C797S/L858R): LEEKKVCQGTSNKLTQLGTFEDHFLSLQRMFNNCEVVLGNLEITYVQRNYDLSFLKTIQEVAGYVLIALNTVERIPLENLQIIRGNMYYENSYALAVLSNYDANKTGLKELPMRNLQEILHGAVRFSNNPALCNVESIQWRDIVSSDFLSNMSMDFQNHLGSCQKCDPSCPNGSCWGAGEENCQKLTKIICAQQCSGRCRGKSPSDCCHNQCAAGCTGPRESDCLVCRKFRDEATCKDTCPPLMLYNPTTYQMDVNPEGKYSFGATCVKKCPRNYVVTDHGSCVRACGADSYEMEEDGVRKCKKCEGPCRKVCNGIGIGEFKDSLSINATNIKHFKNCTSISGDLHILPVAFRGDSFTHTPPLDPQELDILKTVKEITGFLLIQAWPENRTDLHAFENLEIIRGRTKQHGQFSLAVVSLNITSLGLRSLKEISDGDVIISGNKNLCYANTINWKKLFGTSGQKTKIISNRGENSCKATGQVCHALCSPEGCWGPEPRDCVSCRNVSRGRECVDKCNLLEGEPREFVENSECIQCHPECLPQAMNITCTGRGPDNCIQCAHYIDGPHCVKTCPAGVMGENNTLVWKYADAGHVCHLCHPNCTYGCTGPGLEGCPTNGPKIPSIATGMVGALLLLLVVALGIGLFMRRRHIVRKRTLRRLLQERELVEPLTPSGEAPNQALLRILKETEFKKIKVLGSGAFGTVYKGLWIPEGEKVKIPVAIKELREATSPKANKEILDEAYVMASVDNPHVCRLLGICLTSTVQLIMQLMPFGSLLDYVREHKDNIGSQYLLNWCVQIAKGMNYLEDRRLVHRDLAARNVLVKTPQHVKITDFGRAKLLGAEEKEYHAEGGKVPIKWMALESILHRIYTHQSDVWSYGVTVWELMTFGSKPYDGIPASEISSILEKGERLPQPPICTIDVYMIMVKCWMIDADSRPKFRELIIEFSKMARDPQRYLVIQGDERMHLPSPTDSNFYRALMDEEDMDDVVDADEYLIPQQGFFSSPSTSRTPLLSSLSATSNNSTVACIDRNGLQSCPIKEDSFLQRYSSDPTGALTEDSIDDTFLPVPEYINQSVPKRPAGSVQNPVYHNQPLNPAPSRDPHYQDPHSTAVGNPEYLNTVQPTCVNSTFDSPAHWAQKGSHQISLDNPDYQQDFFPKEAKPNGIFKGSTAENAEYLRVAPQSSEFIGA
# measurement-protocol: Biochemical EGFR kinase assay (Lance Ultra TR-FRET), triple mutant L858R/T790M/C797S
# condition-parameters: IC50 L858R/T790M/C797S, 100 μM ATP
property-name: IC50 (nM)

[[record]]
compound = "O=C(c1ccc(-c2cnc(Nc3ccnc(-c4cnn(S(=O)(=O)C5CC5)c4)n3)cc2N[C@H]2CC[C@@H](CO)CC2)nc1)N1CCOCC1"
study_system = "EGFR L858R/T790M/C797S (Homo sapiens, UniProt P00533, C797S/L858R/T790M)"
recorded_value = 0.2

[[record]]
compound = "CC1(O)CCC(Nc2cc(Nc3ccnc(-c4cnn(S(=O)(=O)C5CC5)c4)n3)ncc2-c2ccc(C(C)(O)C(F)(F)F)cn2)CC1 (stereo not drawn)"
study_system = "EGFR L858R/T790M/C797S (Homo sapiens, UniProt P00533, C797S/L858R/T790M)"
recorded_value = 0.6

[[record]]
compound = "CC1(O)CCC(Nc2cc(Nc3ccnc(-c4cnn(S(=O)(=O)C5CC5)c4)n3)ncc2-c2cc(NC3CC(O)C3)ccn2)CC1 (stereo not drawn)"
study_system = "EGFR L858R/T790M/C797S (Homo sapiens, UniProt P00533, C797S/L858R/T790M)"
recorded_value = 0.4

[[record]]
compound = "C[C@]1(O)CC[C@@H](Nc2cc(Nc3ccnc(-c4cnn(S(=O)(=O)C5CC5)c4)n3)ncc2-c2ccc(N3CC(F)(F)C3)cn2)CC1"
study_system = "EGFR L858R/T790M/C797S (Homo sapiens, UniProt P00533, C797S/L858R/T790M)"
recorded_value = 1.4

[[record]]
compound = "CC(C)(F)c1ccc(-c2cnc(Nc3ccnc(-c4cnn(S(=O)(=O)C5CC5)c4)n3)cc2N[C@H]2CC[C@@H](C(C)(C)O)CC2)nc1"
study_system = "EGFR L858R/T790M/C797S (Homo sapiens, UniProt P00533, C797S/L858R/T790M)"
recorded_value = 6.4

[[record]]
compound = "C[C@]1(O)CC[C@@H](Nc2cc(Nc3ccnc(-c4cnn(S(=O)(=O)C5CC5)c4)n3)ncc2-c2cc(NCCN3CC(F)C3)ccn2)CC1"
study_system = "EGFR L858R/T790M/C797S (Homo sapiens, UniProt P00533, C797S/L858R/T790M)"
recorded_value = 0.2

[[record]]
compound = "CC1(O)CCC(Nc2cc(Nc3ccnc(-c4cnn(S(=O)(=O)C5CC5)c4)n3)ncc2-c2cc(CN3CC(O)C3)ccn2)CC1 (stereo not drawn)"
study_system = "EGFR L858R/T790M/C797S (Homo sapiens, UniProt P00533, C797S/L858R/T790M)"
recorded_value = 0.2

[[record]]
compound = "CC(C)(O)C1CCC(Nc2cc(Nc3ccnc(-c4cnn(S(=O)(=O)C5CC5)c4)n3)ncc2-c2ccc(C(O)C(F)(F)F)cn2)CC1 (stereo not drawn)"
study_system = "EGFR L858R/T790M/C797S (Homo sapiens, UniProt P00533, C797S/L858R/T790M)"
recorded_value = 1.9

[[record]]
compound = "O=S(=O)(C1CC1)n1cc(-c2nccc(Nc3cc(NC4CCC(F)(CO)CC4)c(-c4cccc(F)n4)cn3)n2)cn1 (stereo not drawn)"
study_system = "EGFR L858R/T790M/C797S (Homo sapiens, UniProt P00533, C797S/L858R/T790M)"
recorded_value = 3

[[record]]
compound = "O=S(=O)(C1CC1)n1cc(-c2nccc(Nc3cc(N[C@H]4CC[C@@H](CO)CC4)c(-c4ccc(OC(F)(F)F)cn4)cn3)n2)cn1"
study_system = "EGFR L858R/T790M/C797S (Homo sapiens, UniProt P00533, C797S/L858R/T790M)"
recorded_value = 2.5

[[record]]
compound = "CC(C)(F)c1ccc(-c2cnc(Nc3ccnc(-c4cnn(S(=O)(=O)C5CC5)c4)n3)cc2N[C@H]2CC[C@@H](CO)CC2)nc1"
study_system = "EGFR L858R/T790M/C797S (Homo sapiens, UniProt P00533, C797S/L858R/T790M)"
recorded_value = 2.7

[[record]]
compound = "CS(=O)(=O)c1ccc(-c2cnc(Nc3ccnc(-c4cnn(S(=O)(=O)C5CC5)c4)n3)cc2N[C@H]2CC[C@@H](NCCF)CC2)nc1"
study_system = "EGFR L858R/T790M/C797S (Homo sapiens, UniProt P00533, C797S/L858R/T790M)"
recorded_value = 0.1


====

# study-system: EGFR wildtype (Homo sapiens)
# measurement-protocol: Biochemical EGFR kinase assay (Lance Ultra TR-FRET), wildtype
# condition-parameters: IC50 WT, 100 μM ATP
pIC50: −log10 of the molar value.
Binary call on pIC50: t from 6 upward, f beneath that.

[[record]]
molecule = "O=S(=O)(C1CC1)n1cc(-c2nccc(Nc3cc(N[C@H]4CC[C@@H](CO)CC4)c(-c4ccc(OC(F)(F)F)cn4)cn3)n2)cn1"
study_system = "EGFR wildtype (Homo sapiens)"
answer_label = "f"

[[record]]
molecule = "CN(C)CCNc1ccnc(-c2cnc(Nc3ccnc(-c4cnn(S(=O)(=O)C5CC5)c4)n3)cc2N[C@H]2CC[C@@](C)(O)CC2)c1"
study_system = "EGFR wildtype (Homo sapiens)"
answer_label = "f"

[[record]]
molecule = "CN1CCN(C(=O)c2ccc(-c3cnc(Nc4ccnc(-c5cnn(S(=O)(=O)C6CC6)c5)n4)cc3N[C@H]3CC[C@@](C)(O)CC3)nc2)CC1"
study_system = "EGFR wildtype (Homo sapiens)"
answer_label = "t"

[[record]]
molecule = "C[C@]1(O)CC[C@@H](Nc2cc(Nc3ccnc(-c4cnn(S(=O)(=O)C5CC5)c4)n3)ncc2-c2ccc(N3CC(F)(F)C3)cn2)CC1"
study_system = "EGFR wildtype (Homo sapiens)"
answer_label = "f"

[[record]]
molecule = "CC(C)(O)[C@H]1CC[C@@H](Nc2cc(Nc3ccnc(-c4cnn(S(=O)(=O)C5CC5)c4)n3)ncc2-c2ccc(S(=O)(=O)N3CCOCC3)cn2)CC1"
study_system = "EGFR wildtype (Homo sapiens)"
answer_label = "f"

[[record]]
molecule = "CN(C)CCOc1ccc(-c2cnc(Nc3ccnc(-c4cnn(S(=O)(=O)C5CC5)c4)n3)cc2N[C@H]2CC[C@@H](C(C)(C)O)CC2)nc1"
study_system = "EGFR wildtype (Homo sapiens)"
answer_label = "t"

[[record]]
molecule = "C[C@]1(O)CC[C@@H](Nc2cc(Nc3ccnc(-c4cnn(S(=O)(=O)C5CC5)c4)n3)ncc2-c2ccc(C(F)(F)F)c(F)n2)CC1"
study_system = "EGFR wildtype (Homo sapiens)"
answer_label = "f"

[[record]]
molecule = "CC(F)(F)c1ccc(-c2cnc(Nc3ccnc(-c4cnn(S(=O)(=O)C5CC5)c4)n3)cc2N[C@H]2CC[C@@H](C(C)(C)O)CC2)nc1"
study_system = "EGFR wildtype (Homo sapiens)"
answer_label = "f"

[[record]]
molecule = "CN1CCN(C(=O)c2ccc(-c3cnc(Nc4ccnc(-c5cnn(S(=O)(=O)C6CC6)c5)n4)cc3N[C@H]3CC[C@@H](CN(C)C)CC3)nc2)CC1"
study_system = "EGFR wildtype (Homo sapiens)"
answer_label = "t"

[[record]]
molecule = "O=S(=O)(C1CC1)n1cc(-c2nccc(Nc3cc(N[C@H]4CCC[C@H](CO)C4)c(-c4ccc(CC(F)(F)F)cn4)cn3)n2)cn1"
study_system = "EGFR wildtype (Homo sapiens)"
answer_label = "f"

[[record]]
molecule = "CC(C)(O)[C@H]1CC[C@@H](Nc2cc(Nc3ccnc(-c4cnn(S(=O)(=O)C5CC5)c4)n3)ncc2-c2cccc(F)n2)CC1"
study_system = "EGFR wildtype (Homo sapiens)"
answer_label = "f"

[[record]]
molecule = "CC1(O)CCC(Nc2cc(Nc3ccnc(-c4cnn(S(=O)(=O)C5CC5)c4)n3)ncc2-c2cc(NC3CC(O)C3)ccn2)CC1 (stereo not drawn)"
study_system = "EGFR wildtype (Homo sapiens)"
answer_label = "f"

[[record]]
molecule = "O=S(=O)(C1CC1)n1cc(-c2nccc(Nc3cc(N[C@H]4CC[C@@H](CCO)CC4)c(-c4ccc(CC(F)(F)F)cn4)cn3)n2)cn1"
study_system = "EGFR wildtype (Homo sapiens)"
answer_label = "f"

[[record]]
molecule = "CC(F)(F)c1ccc(-c2cnc(Nc3ccnc(-c4cnn(S(=O)(=O)C5CC5)c4)n3)cc2N[C@H]2CC[C@@](C)(O)CC2)nc1"
study_system = "EGFR wildtype (Homo sapiens)"
answer_label = "f"

[[record]]
molecule = "CS(=O)(=O)c1ccc(-c2cnc(Nc3ccnc(-c4cnn(S(=O)(=O)C5CC5)c4)n3)cc2N[C@H]2CC[C@@](C)(O)CC2)nc1"
study_system = "EGFR wildtype (Homo sapiens)"
answer_label = "f"

[[record]]
molecule = "C[C@]1(O)CC[C@@H](Nc2cc(Nc3ccnc(-c4cnn(S(=O)(=O)C5CC5)c4)n3)ncc2-c2cc(OCCN3CCOCC3)ccn2)CC1"
study_system = "EGFR wildtype (Homo sapiens)"
answer_label = "f"

[[record]]
molecule = "Cc1ccc(-c2cnc(Nc3ccnc(-c4cnn(S(=O)(=O)C5CC5)c4)n3)cc2N[C@H]2CC[C@@H](C(C)(C)O)CC2)nc1F"
study_system = "EGFR wildtype (Homo sapiens)"
answer_label = "f"

[[record]]
molecule = "CC(C)(O)[C@H]1CC[C@@H](Nc2cc(Nc3ccnc(-c4cnn(S(=O)(=O)C5CC5)c4)n3)ncc2-c2ccc(CC(F)(F)F)cn2)CC1"
study_system = "EGFR wildtype (Homo sapiens)"
answer_label = "f"

[[record]]
molecule = "CC(C)(O)c1ccc(-c2cnc(Nc3ccnc(-c4cnn(S(=O)(=O)C5CC5)c4)n3)cc2N[C@H]2CC[C@@](C)(O)CC2)nc1"
study_system = "EGFR wildtype (Homo sapiens)"
answer_label = "t"

[[record]]
molecule = "C[C@]1(O)CC[C@@H](Nc2cc(Nc3ccnc(-c4cnn(S(=O)(=O)C5CC5)c4)n3)ncc2-c2ccc(C(=O)N3CCOCC3)cn2)CC1"
study_system = "EGFR wildtype (Homo sapiens)"
answer_label = "t"

[[record]]
molecule = "CC1(O)CCC(Nc2cc(Nc3ccnc(-c4cnn(S(=O)(=O)C5CC5)c4)n3)ncc2-c2ccc(C(C)(O)C(F)(F)F)cn2)CC1 (stereo not drawn)"
study_system = "EGFR wildtype (Homo sapiens)"
answer_label = "f"

[[record]]
molecule = "O=S(=O)(C1CC1)n1cc(-c2nccc(Nc3cc(NC4CCC(F)(CO)CC4)c(-c4cccc(F)n4)cn3)n2)cn1 (stereo not drawn)"
study_system = "EGFR wildtype (Homo sapiens)"
answer_label = "f"

[[record]]
molecule = "O=S(=O)(C1CC1)n1cc(-c2nccc(Nc3cc(N[C@H]4CC[C@@H](CO)CC4)c(-c4cccc(CC(F)(F)F)n4)cn3)n2)cn1"
study_system = "EGFR wildtype (Homo sapiens)"
answer_label = "f"

